target: PDE 7 (phosphodiesterase VII) (Homo sapiens (Human), UniProt Q13946); assay: PDE 7 inhibiting effect (3H-cAMP hydrolysis, PDE 7 active fraction from MOLT-4 cells); format: biochemical; conditions: PDE 7 fraction from MOLT-4 cells, 0.064 μM cAMP, 10 μM rolipram, 2 hours at 25° C.; read-out: PDE7 IC50
Sequence (Q13946 whole entry): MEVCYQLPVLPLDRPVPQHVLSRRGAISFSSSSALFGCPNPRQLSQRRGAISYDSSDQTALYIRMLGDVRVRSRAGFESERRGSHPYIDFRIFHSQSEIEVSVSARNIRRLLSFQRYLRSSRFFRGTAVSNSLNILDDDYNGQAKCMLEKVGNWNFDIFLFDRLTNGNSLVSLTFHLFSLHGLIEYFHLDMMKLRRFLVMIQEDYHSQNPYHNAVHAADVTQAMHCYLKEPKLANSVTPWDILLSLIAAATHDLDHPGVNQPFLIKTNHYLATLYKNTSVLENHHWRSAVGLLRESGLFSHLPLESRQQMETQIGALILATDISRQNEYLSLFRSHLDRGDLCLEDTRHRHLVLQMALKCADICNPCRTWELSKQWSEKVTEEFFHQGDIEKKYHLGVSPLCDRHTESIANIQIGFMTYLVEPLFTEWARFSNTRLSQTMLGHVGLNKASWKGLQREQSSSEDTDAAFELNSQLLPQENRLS
Where a name gives a salt, the structure may show the parent alone.
quantity: pIC50
Here pIC50 is given on a logarithmic scale as minus log10 of the concentration in mol/L.

Fill in the blank: the reported pIC50 of `Cc1nn(C2CCCCC2)c2sc(C(=O)Nc3ccc(C(=O)NCCO)cc3)cc12` is ____.
7.52

Param item = `COCCNC(=O)c1ccc(NC(=O)c2cc3c(C)nn(C4CCCCC4)c3s2)cc1` ; retrieve measured pIC50.
7.55

I'd like to know its pIC50. The compound in question is `CCOC(=O)Nc1ccc(NC(=O)c2cc3c(C)nn(C4CCCCC4)c3s2)cc1`
7.28

Quick one: pIC50 for `Cc1nn(C2CCOCC2)c2sc(C(=O)Nc3ccc(N4CCNC4=O)nc3)cc12` ?
7.55

If you can, please state the reported pIC50 value of `Cc1nn(C2CCCCC2)c2sc(C(=O)Nc3ccc(CO)nc3)cc12` .
7.49

Given the compound `Cc1nn(C2CCCCC2)c2sc(C(=O)Nc3ccc4c(c3)CC(=O)N4)cc12` , what is its reported pIC50?
7.36

Given `Cc1nn(C2CCCCC2)c2sc(C(=O)Nc3ccc(N4CC[C@@H](O)C4)c(F)c3)cc12` , state its recorded pIC50.
7.27

What measured pIC50 goes with `CNS(=O)(=O)c1cccc(NC(=O)c2cc3c(C)nn(C4CCCCC4)c3s2)c1` ?
8.00

Reported pIC50 for Cc1nn(C2CCCCC2)c2sc(C(=O)Nc3ccc(CN4CCOCC4)cc3)cc12 [Example 199, fumarate] : what is it?
7.25

Param item = Cc1nn(C2CCCCC2)c2sc(C(=O)Nc3ccc(N4CCNCC4)cc3)cc12 [Example 72, HCl salt] ; retrieve measured pIC50.
8.00

I am curious: what pIC50 value has been reported for `Cc1nn(C2CCCCC2)c2sc(C(=O)N[C@H]3CC[C@H](N4CCC(N(C)C)CC4)CC3)cc12` ?
8.07

May I ask what pIC50 has been recorded for `COc1cc(NC(=O)c2cc3c(C)nn(C4CCCCC4)c3s2)ccc1NC(C)=O` ?
7.57

Requested field: pIC50. Item: `Cc1nn(C2CCCCC2)c2sc(C(=O)N[C@H]3CC[C@H](N4CCCNCC4)CC3)cc12`
7.66

Requested read-out: pIC50. Entry: `Cc1nn(C2CCOCC2)c2sc(C(=O)Nc3ccc(N4CCN(C)CC4=O)cc3)cc12`
7.01

Request the reported pIC50 associated with `Cc1nn(C2CCCCC2)c2sc(C(=O)Nc3ccc(N4CCC(O)CC4)c(F)c3)cc12`
7.46

Which pIC50 is listed for `Cc1nn(C2CCCCC2)c2sc(C(=O)Nc3ccc4c(c3)CCN4C(=O)C(C)(C)C)cc12` ?
7.01

Given the entry `Cc1nn(C2CCCCC2)c2sc(C(=O)N[C@H]3CC[C@H](C#N)CC3)cc12` , report its measured pIC50.
7.11

Name the reported pIC50 value associated with the compound `CC(=O)N1CCCN([C@H]2CC[C@H](NC(=O)c3cc4c(C)nn(C5CCCCC5)c4s3)CC2)CC1`
7.43

Requested read-out: pIC50. Entry: `Cc1nn(C2CCCCC2)c2sc(C(=O)NCCN3CCN(C)C3=O)cc12`
7.22

Look up pIC50 for this compound: `Cc1nn(C2CCOCC2)c2sc(C(=O)N[C@H]3CC[C@H](C(=O)N(C)C)CC3)cc12`
7.11

I would be grateful if you could share the reported pIC50 for `Cc1nn(C2CCCCCC2)c2sc(C(=O)Nc3ccc(N4CCN(C)CC4)cc3)cc12` .
8.10

Look up pIC50 for this compound: `Cc1nn(C2CCOCC2)c2sc(C(=O)Nc3ccc(C(=O)N(C)C)cc3)cc12`
7.05

Value lookup for pIC50; key = `Cc1nn(C2CCCCC2)c2sc(C(=O)Nc3ccc4c(c3)CCN4C(=O)C3CC3)cc12`
7.44

# query: pIC50 of entry `CNC(=O)COc1ccc(NC(=O)c2cc3c(C)nn(C4CCCCC4)c3s2)cc1`
7.64

Look at this compound and give its reported pIC50. `Cc1nn(C2CCOCC2)c2sc(C(=O)N[C@H]3CC[C@H](N4CCNC(=O)C4)CC3)cc12`
7.20

Data request, read-out pIC50, for `Cc1nn(C2CCCCC2)c2sc(C(=O)Nc3ccc(N4C(=O)CN(C)C4=O)cc3)cc12`
8.21

What measured pIC50 goes with `Cc1nn(C2CCCCC2)c2sc(C(=O)Nc3ccc(C(=O)NC(C)C)cc3)cc12` ?
7.30

Consider the compound shown here: `Cc1nn(C2CCCCC2)c2sc(C(=O)N[C@H]3CC[C@H](N4CCN(C)C4=O)CC3)cc12` What is its recorded pIC50?
7.77

For the compound shown here, `Cc1nn(C2CCCCC2)c2sc(C(=O)Nc3ccc(N4CC[C@@H](O)C4)cc3)cc12` , give the reported pIC50.
7.55

Param item = Cc1nn(C2CCCCC2)c2sc(C(=O)Nc3ccc4c(c3)CCN4)cc12 [Example 14, HCl salt] ; retrieve measured pIC50.
7.06

Reported pIC50 for `COC1CCN([C@H]2CC[C@H](NC(=O)c3cc4c(C)nn(C5CCCCC5)c4s3)CC2)CC1` : what is it?
7.66

Find the recorded pIC50 belonging to `Cc1nn(C2CCCCC2)c2sc(C(=O)N[C@H]3CC[C@H](C(=O)N(C)C)CC3)cc12` and report it.
7.60

So what does the record say about pIC50 for `Cc1nn(C2CCCCC2)c2sc(C(=O)NCCN3C(=O)CNC3=O)cc12` ?
7.18

Form field: reported pIC50 of `CC(=O)Nc1ccc(NC(=O)c2cc3c(C)nn(C4CCCCCC4)c3s2)cc1`
7.24

Query: pIC50; subject: Cc1nn(C2CCCCC2)c2sc(C(=O)Nc3ccc(N(C)CCO)c(F)c3)cc12 [Example 125, HCl salt]
7.12

###

target: PDE 7 (phosphodiesterase VII) (Homo sapiens (Human), UniProt Q13946); assay: PDE 7 inhibiting effect (3H-cAMP hydrolysis, PDE 7 active fraction from MOLT-4 cells); assay type: biochemical; settings: PDE 7 fraction from MOLT-4 cells, 0.064 μM cAMP, 10 μM rolipram, 2 hours at 25° C.; read-out: PDE7 IC50
Answer each item with its documented IC50.
Report as a plain number; the unit µM is understood.

What value of measured IC50 is listed for Cc1nn(C2CCOCC2)c2sc(C(=O)N[C@H]3CC[C@H](N4CCN(S(C)(=O)=O)CC4)CC3)cc12 [Example 396] ?
0.022

Suppose we examine the molecule CC(=O)n1ccc2cc(NC(=O)c3cc4c(C)nn(C5CCCCC5)c4s3)ccc21 [Example 60] ; what IC50 value has been reported?
0.065

What does the record list as IC50 for Cc1nn(C2CCOCC2)c2sc(C(=O)Nc3ccc(N4CCNC(=O)C4)cc3)cc12 [Example 342] ?
0.028

So what does the record say about IC50 for Cc1nn(C2CCCCC2)c2sc(C(=O)Nc3ccc(N4CCC(O)CC4)c(Cl)c3)cc12 [Example 162] ?
0.07

Fill blank: measured IC50 of the molecule Cc1nn(C2CCOCC2)c2sc(C(=O)N[C@H]3CC[C@H](N4CCC(O)CC4)CC3)cc12 [Example 425] is ____.
0.09

Sample Cc1nn(C2CCCCC2)c2sc(C(=O)Nc3ccc(N4CCN(C)CC4)cc3)cc12 [Example 106] — what was its IC50?
0.009

Could you share which IC50 value was measured for Cc1nn(C2CCCCC2)c2sc(C(=O)N[C@H]3CC[C@H](N4CCCS4(=O)=O)CC3)cc12 [Example 274] ?
0.0099

Would you mind telling me what IC50 value was observed for CC(=O)N1CCN([C@H]2CC[C@H](NC(=O)c3cc4c(C)nn(C5CCOCC5)c4s3)CC2)CC1 [Example 395] ?
0.019

###

molecular target: PDE 4 (phosphodiesterase IV); test: PDE 4 inhibiting effect (3H-cAMP hydrolysis, PDE 4 active fraction from Balb/c mouse liver); assay type: biochemical; details: PDE 4 fraction from Balb/c mice liver, 0.064 μM cAMP, 2 hours at 25° C.; read-out: PDE4 IC50
Structures can show the parent of a compound that is named as a salt.
So I've got a bunch of compounds here, and I need their IC50 values.
Hi! Could you send only the number? It should be in µM, unit omitted.

So what's the measured IC50 for this one? Cc1nn(C2CCCCC2)c2sc(C(=O)N[C@H]3CC[C@H](NC(=O)N(C)CC(=O)OCc4ccccc4)CC3)cc12 [Example 275]
1.2

Entry Cc1nn(C2CCOCC2)c2sc(C(=O)N[C@H]3CC[C@H](N4CCNC(=O)C4)CC3)cc12 [Example 417] : reported IC50 = ?
7

Value lookup for IC50; key = Cc1nn(C2CCOCC2)c2sc(C(=O)Nc3ccc(N4CCN(C)CC4)c(F)c3)cc12 [Example 197]
4.4

Entry under review: Cc1nn(C2CCOCC2)c2sc(C(=O)N[C@H]3CC[C@H](N4C[C@@H](C)O[C@@H](C)C4)CC3)cc12 [Example 402] . Reported IC50?
7.3

Would you mind telling me what IC50 value was observed for Cc1nn(C2CCCCC2)c2sc(C(=O)Nc3ccc(N4CCC(O)CC4)nc3)cc12 [Example 370] ?
4.1

If you can, please state the reported IC50 value of Cc1nn(C2CCCCC2)c2sc(C(=O)Nc3ccc(N4CCN(C)CC4)cc3)cc12 [Example 106] .
1.2

What does the data say about its IC50? Entry: CNC(=O)c1ccc(NC(=O)c2cc3c(C)nn(C4CCCCC4)c3s2)cc1OC [Example 152]
3

Endpoint output: IC50 of Cc1nn(C2CCCCC2)c2sc(C(=O)NCCN3C(=O)CN(C)C3=O)cc12 [Example 277] . Value?
7.8

Data request, read-out IC50, for Cc1nn(C2CCOCC2)c2sc(C(=O)Nc3ccc(N4CCN(C)CC4)cc3)cc12 [Example 196]
7.5

Sample Cc1nn(C2CCCCC2)c2sc(C(=O)Nc3ccc(C(=O)N(C)C)cc3)cc12 [Example 39] — what was its IC50?
3.5

Need IC50 of CC(=O)N1CCN(c2ccc(NC(=O)c3cc4c(C)nn(C5CCCCC5)c4s3)cc2)CC1 [Example 73] , thanks.
1

Item Cc1nn(C2CCOCC2)c2sc(C(=O)Nc3ccc(N4CCN(C)CC4=O)cc3)cc12 [Example 440] has what recorded IC50?
28

Field request: IC50 | item: Cc1nn(C2CCOCC2)c2sc(C(=O)Nc3ccc(C(=O)N(C)C)cc3)cc12 [Example 255]
12

Name the recorded IC50 for Cc1nn(C2CCCCC2)c2sc(C(=O)Nc3ccc(CCN(C)C)cc3)cc12 [Example 200] .
1.9

Any idea what IC50 was measured for Cc1nn(C2CCCCC2)c2sc(C(=O)Nc3ccc(C4CCNCC4)cc3)cc12 [Example 141, HCl salt] ?
1.6

Ref: patent US8901315B2
